test: Primary qHTS for Huh7 cytotoxicity: counterscreen for inhibitors of MERS-S pseudotyped particle cell entry (AID 1479147); settings: cell viability read-out; series mostly up to 57.1 µM
Records with an inconclusive call do not appear. Calls of active or inactive are those of the source. Calls come from the whole dose curve.
Lab note: assign the record to one of active, inactive

Prompt: Look up the recorded call for c1ccc2scnc2c1 in this test.
Completion: inactive

Prompt: Look up the recorded call for COc1cc2[nH]c(C)c(CCN3CCN(c4ccccc4)CC3)c2cc1OC in this test.
Completion: inactive

Prompt: Look up the recorded call for CO/N=C(\C(=O)N[C@@H]1C(=O)N2C(C(=O)O)=C(Cn3ccc(=N)n3CCO)CS[C@H]12)c1csc(N)n1 in this test.
Completion: inactive

Prompt: Look up the recorded call for NC(Cc1cc(I)c(Oc2cc(I)c(O)c(I)c2)c(I)c1)C(=O)O (centres undefined) in this test.
Completion: inactive

Prompt: Look up the recorded call for C=CC1(C)CC(=O)C2(O)C(C)(O1)C(OC(C)=O)C(OC(=O)CCN(C)C)C1C(C)(C)CCC(O)C12C (centres undefined) in this test.
Completion: inactive

Prompt: Look up the recorded call for COc1cc2c(cc1OC)[C@@H](Cc1cc(OC)c(OC)c(OC)c1)[N+](C)(CCCOC(=O)CC/C=C/CCC(=O)OCCC[N+]1(C)CCc3cc(OC)c(OC)cc3[C@H]1Cc1cc(OC)c(OC)c(OC)c1)CC2 (some centres undefined) in this test.
Completion: inactive

Prompt: Look up the recorded call for C=C(NC(=O)C(=C)NC(=O)c1csc(C2=N[C@H]3c4csc(n4)[C@H]4NC(=O)c5csc(n5)[C@H]([C@@](C)(O)[C@@H](C)O)NC(=O)[C@H]5CSC(=N5)C(=CC)NC(=O)[C@H]([C@@H](C)O)NC(=O)c5csc(n5)[C@]3(CC2)NC(=O)[C@H](C)NC(=O)C(=C)NC(=O)[C@H](C)NC(=O)[C@H](C(C)CC)N[C@@H]2C=Cc3c([C@H](C)O)cc(nc3[C@H]2O)C(=O)O[C@@H]4C)n1)C(N)=O (some centres undefined) in this test.
Completion: active

Prompt: Look up the recorded call for O[C@@H]([C@H](O)[C@@H](O)CBr)[C@@H](O)CBr in this test.
Completion: inactive

Prompt: Look up the recorded call for Cc1[nH]cnc1C[C@H]1CCc2c(C)c3ccccc3n2C1=O in this test.
Completion: inactive
